SUBJECT OF TEST: Interleukin-1 receptor-associated kinase 1 (Homo sapiens, UniProt P51617)
Sequence (P51617 whole entry): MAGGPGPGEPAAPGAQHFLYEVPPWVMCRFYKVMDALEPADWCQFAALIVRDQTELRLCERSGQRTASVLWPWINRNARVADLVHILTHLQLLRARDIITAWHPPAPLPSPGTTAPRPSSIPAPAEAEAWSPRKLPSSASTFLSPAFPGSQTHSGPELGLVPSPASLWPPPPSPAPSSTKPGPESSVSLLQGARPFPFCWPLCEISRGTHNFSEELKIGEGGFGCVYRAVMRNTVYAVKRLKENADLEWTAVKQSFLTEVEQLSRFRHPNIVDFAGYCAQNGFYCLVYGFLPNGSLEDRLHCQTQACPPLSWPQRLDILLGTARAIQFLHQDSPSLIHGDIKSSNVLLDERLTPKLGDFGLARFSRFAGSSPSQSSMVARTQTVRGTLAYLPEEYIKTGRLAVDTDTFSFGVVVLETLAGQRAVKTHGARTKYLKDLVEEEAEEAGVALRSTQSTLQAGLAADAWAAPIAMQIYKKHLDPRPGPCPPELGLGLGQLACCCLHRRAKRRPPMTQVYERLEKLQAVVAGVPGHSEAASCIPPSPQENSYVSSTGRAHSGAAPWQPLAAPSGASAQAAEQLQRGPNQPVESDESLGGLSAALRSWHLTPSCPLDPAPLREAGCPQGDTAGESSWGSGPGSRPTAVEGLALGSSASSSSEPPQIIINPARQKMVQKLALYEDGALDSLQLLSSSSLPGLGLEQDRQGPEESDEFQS
PROCEDURE SUMMARY: In vitro IRAK-1 and IRAK-4 Assay: Purified recombinant IRAK-4 protein was incubated with 250 uM synthetic peptide([…]) in 30 ul of kinase buffer including (20 mM MOPS pH7.2, 25 mM beta glycerol phosphate, 5 mM EGTA, 1 mM sodium orthovanadate, 1 mM DTT, 50 uM ATP, 20 mM MgCl2, 10 uCi gamma-33P, 0.1% BSA) for the indicated time. For purified recombinant IRAK-1 protein kinase assay, 50 uM ATP was used. A 25 ul aliquot of the reaction mixture was transferred on to p81 phosphocellulose squares (Upstate Biotechnology, Lake Placid, N.Y.). The assay squares were washed three times with 0.75% phosphoric acid and once with acetone. Enzyme activity was measured by determining the bound radioactivity by liquid scintillation counting.
ENDPOINT NAME: IC50 (nM)

1: COc1cc2ncccc2cc1NC(=O)c1cnn2cc(O)cnc12
2: O=C(Nc1cc2cccnc2cc1OC1CCC(O)CC1)c1csc2cncnc12 (stereo unspecified)
3: CC(O)C1CCN(c2ccc(Cl)cc2NC(=O)c2cnn3cccnc23)CC1 (stereo unspecified)
4: O=C(Nc1cc2cccnc2cc1O[C@H]1CC[C@@H](O)CC1)c1csc2cncnc12
Sort entries by IC50 from minimum to maximum value. Would you mind listing the labels in the order asked for? 4, 2, 1, 3
(4: 70 nM, 2: 123 nM, 1: 200 nM, 3: 970 nM)
